experiment: Solubility in water and olive oil (Method III); conditions: olive oil, organic solvent or mixture
Quick reference for solubility among some molecules
measured attribute: solubility

# molecule, value
records = [
    ("CCCCCCCCCCCCCCCCCCOCC(O)COCc1cc(C(C)(C)C)c(O)c(C(C)(C)C)c1 (stereo not shown)", "> 50000 µg/mL"),
    ("CCCCCCC#CC(=O)c1cc(C(C)(C)C)c(O)c(C(C)(C)C)c1", "> 50000 µg/mL"),
    ("CCCCCCCCCCCCCCCCCCCC(=O)C(=Cc1cc(C(C)(C)C)c(O)c(C(C)(C)C)c1)C(=O)OCC", "> 50000 µg/mL"),
    ("CCCCCCCCCCCCCCCC(=O)OC[C@H](O)[C@H]1OC(=O)C(O)=C1O [Ascorbyl palmitate, reference compound]", "> 100 µg/mL"),
    ("Cc1c(C)c2c(c(C)c1O)CCC(C)(C(=O)NCCCNC(=O)CC[C@@H](C)[C@H]1CC[C@H]3[C@@H]4[C@H](O)C[C@@H]5C[C@H](O)CC[C@]5(C)[C@H]4C[C@H](O)[C@]13C)O2 (stereo partly shown)", "> 10000 µg/mL"),
    ("CC(C)CCC[C@@H](C)[C@H]1CC[C@H]2[C@@H]3CC=C4C[C@@H](OCCOC5=C(O)[C@@H]([C@@H](O)CO)OC5=O)CC[C@]4(C)[C@H]3CC[C@]12C", "> 1000 µg/mL"),
    ("CCCCCCCCCCCCCCCCCCNC(=O)CCCCC(S)CCS (racemic)", "> 10000 µg/mL"),
    ("CC(C)CCCC(C)C1CC[C@H]2C3CC=C4CC(OC(=O)CCCCC5CCSS5)CC[C@]4(C)[C@H]3CC[C@]12C (stereo partly shown)", "> 50000 µg/mL"),
    ("O[C@H](CS)[C@@H](O)CS [Dithioerythritol, reference compound]", "< 100 µg/mL"),
    ("CCCCCCCCCCCCCCCCCCCC(O)C(Cc1cc(C(C)(C)C)c(O)c(C(C)(C)C)c1)C(=O)OCC (stereo not shown)", "> 50000 µg/mL"),
    ("CCCCCCCCCCCCCCCCCC(=O)OC[C@H](O)[C@H]1OC(=O)C(OP(=O)(OCC)OCC)=C1O", "> 1000 µg/mL"),
    ("CCCCCCCCCCCCCCCCCCCC(O)C(CO)Cc1cc(C(C)(C)C)c(O)c(C(C)(C)C)c1 (stereo not shown)", "> 50000 µg/mL"),
    ("CCCCCCCCCCCCCCCCCCOCC(CO)OC(=O)c1cc(C(C)(C)C)c(O)c(C(C)(C)C)c1 (stereo not shown)", "> 50000 µg/mL"),
    ("Cc1c(C)c2c(c(C)c1O)CCC(C)(C(=O)NCCCNC(=O)CC[C@@H](C)[C@H]1CC[C@H]3[C@@H]4CC[C@@H]5C[C@H](O)CC[C@]5(C)[C@H]4C[C@H](O)[C@]13C)O2 (stereo partly shown)", "> 10000 µg/mL"),
    ("Cc1c(C)c2c(c(C)c1O)CCC(C)(C(=O)O)O2 (stereo not shown) [reference compound]", "< 100 µg/mL"),
    ("CCCCCCC(=O)NCCCNC(=O)C1(C)CCc2c(C)c(O)c(C)c(C)c2O1 (stereo not shown)", "> 10000 µg/mL"),
    ("Cc1cc(C(C)(C)C)c(O)c(C(C)(C)C)c1 [BHT, butylated hydroxytoluene, reference compound]", "> 10000 µg/mL"),
    ("CCCCCCCCCCCCCCCCCCCC1OC(C)(C)OCC1Cc1cc(C(C)(C)C)c(O)c(C(C)(C)C)c1 (stereo not shown)", "> 50000 µg/mL"),
    ("CCCCCCCCCCCCCCCCCC(=O)OC[C@H](OC(=O)CCCCCCCCCCCCCCCCC)[C@H]1OC(=O)C(OP(=O)(OCC)OCC)=C1O", "> 1000 µg/mL"),
    ("CCCCCCCCCCCCCCCCCCC(COCCOC1=C(O)C(C(O)CO)OC1=O)COCCOC1=C(O)C(C(O)CO)OC1=O (stereo not shown)", "> 10000 µg/mL"),
    ("Cc1c(C)c2c(c(C)c1O)CCC(C)(C(=O)NC1CCCCC1)O2 (stereo not shown)", "> 10000 µg/mL"),
    ("CC(C)CCCC(C)C1CC[C@H]2C3CC=C4CC(OC(=O)CCCCC(S)CCS)CC[C@]4(C)[C@H]3CC[C@]12C (stereo partly shown)", "> 50000 µg/mL"),
    ("CCCCCCCCCCCCCCCCCCOC(=O)CCCCC(S)CCS (stereo not shown)", "> 50000 µg/mL"),
    ("CCCCCCCCCCCCCCCC(=O)NCCCNC(=O)C1(C)CCc2c(C)c(O)c(C)c(C)c2O1 (stereo not shown)", "> 10000 µg/mL"),
    ("CC(C)(C)c1cc(C2SCCC(CCCCC(=O)O)S2)cc(C(C)(C)C)c1O (stereo not shown)", "> 50000 µg/mL"),
    ("CCCCCCCCCCCCCCCCCCOCC(O)COC(=O)c1cc(C(C)(C)C)c(O)c(C(C)(C)C)c1 (stereo not shown)", "> 50000 µg/mL"),
    ("CCCCCCCCCCCCCCCCCCNC(=O)CCCCC1CCSS1 (racemic) [Example 52, N-octadecyl-DL-α-lipoic acid amide]", "> 10000 µg/mL"),
    ("Cc1c(C)c2c(c(C)c1O)CCC(C)(C(=O)NCCO[C@H]1CC[C@@]3(C)[C@@H](C1)C[C@@H](O)[C@@H]1[C@@H]3C[C@H](O)[C@]3(C)[C@@H]([C@H](C)CCC(=O)O)CC[C@@H]13)O2 (stereo partly shown)", "> 1000 µg/mL"),
]
